Reported IC50 values for the following compounds.
System: A549 cells
TEST_DETAILS: MTT cytotoxicity assay, A549
Assay type: cell-based, human
RUN_PARAMETERS: read-out: IC50 A549 cells, 72 h
MEASURE_NAME: IC50 (µM)

[[record]]
compound = "Clc1ccc([O][Ga]([O]c2ccc(Cl)c3cccnc23)[O]c2ccc(Cl)c3cccnc23)c2ncccc12 [CP-3, [Ga(ClQL)3]]"
target = "A549 cells"
reading = 8.7

[[record]]
compound = "Cc1ccc2cccc([O][Ga]([O]c3cccc4ccc(C)nc34)[O]c3cccc4ccc(C)nc34)c2n1 [CP-2, [Ga(MQL)3]]"
target = "A549 cells"
reading = 6.1

[[record]]
compound = "c1cnc2c([O][Ga]([O]c3cccc4cccnc34)[O]c3cccc4cccnc34)cccc2c1 [CP-1, [Ga(HQL)3]]"
target = "A549 cells"
reading = 3.8

[[record]]
compound = "O=C1[O][Pt]2([NH][C@@H]3CCCC[C@H]3[NH]2)[O]C1=O [oxaliplatin, reference compound]"
target = "A549 cells"
reading = 3.2

[[record]]
compound = "N.N.[Cl][Pt][Cl] [cisplatin, reference compound]"
target = "A549 cells"
reading = 7.5

